# Tested on: M14 melanoma
# Procedure Details: NCI-60 one-dose screen, 48 h (100 = growth as untreated, 0 = no growth, -100 = all killed)
# Setup Conditions: 10 µM unless noted
About 83,000 compounds went through this panel and 20% of them were active in at least one assay; those are over-represented in the sample as a whole.
Observation Type: growth (%)
Express your answer in %, writing the number without its unit.

- COc1ccc(-c2csc(NC(=O)N3CCN(c4cc5c(cc4F)c(=O)c(C(=O)O)cn5C4CC4)CC3)n2)cc1: 9.8
- Cc1ccccc1C(=O)NN: 107
- C=C1C(=O)O[C@H]2[C@H]1CC/C(COC(=O)NCCOCCOCC(=O)Nc1ccc(OC)c(C(N)=O)c1O)=C\CC[C@@]1(C)O[C@@H]21: 60.4
- C[N+]1=C(/C=C/c2ccc(O)c3ncccc23)C(C)(C)c2ccccc21: 67.5

Param readout = growth; param system = M14 melanoma; param query = COc1cc(OCc2cccc(-c3ccc(C(O)c4nccs4)cc3)c2C)cc(OC)c1CNCCNC(C)=O (centres undefined) ; response: value
99.6

Param readout = growth; param system = M14 melanoma; param query = CC([C@H]1CCC2C3CCC4C(=O)C(NC=O)=CC[C@]4(C)C3CC[C@@]21C)N(C)C (some centres undefined) ; response: value
-33
